# credit: patent US9353090B2

PROTOCOL TEXT: physchem
RUN CONDITIONS: pH 2.2, aqueous buffer, kinetic from dmso stock, Solubility (pH 2.2)
VALUE KIND: solubility at 24 h (mg/mL)

CCO[C@@H]1CN(c2nc(-c3cc(C)ccc3OCc3cc4c(c(OC)c3)CN(C3CCOCC3)CC4)cs2)CC[C@@H]1C(=O)O [Compound 229] | 0.122
Cc1cc(COc2c(C)cccc2-c2csc(N3CC[C@@]4(C(=O)O)C[C@H]4C3)n2)c(C)c2c1CN(CC1COCCO1)CC2 (stereo partly drawn) [Compound 98] | 0.12
Cc1cccc(-c2csc(N3C[C@@H]4C[C@]4(C(=O)O)C3)n2)c1OCc1ccc2c(c1C)CCN(C1CCOCC1)CC2 [Compound 144] | 0.11
COC[C@H]1N(c2cccc(-c3cccc(F)c3OCc3cc(C)c4c(c3)CCN(C3CCOCC3)C4)n2)C[C@@H]2C[C@@]21C(=O)O [Compound 213] | 0.144
Cc1cccc(-c2csc(N3C[C@@H]4C[C@]4(C(=O)O)C3)n2)c1OCc1cc(C#N)c2c(c1)CCN(C1COC1)C2 [Compound 141] | 0.11
Cc1c(COc2ccccc2-c2cccc(N3CC[C@@]4(C(=O)O)C[C@H]4C3)n2)ccc2c1CCN(C[C@@H]1COCCO1)C2 [Compound 10] | 0.13
